- Assayed Target: Cyclin-dependent kinase 2/cyclin A (Homo sapiens) (UniProt P24941+P20248+P78396)
- Protocol Summary: Inhibition of CDK2/cyclin A at 1 uM; values are per cent of control
Readout Kind: residual activity

Completed entries (count: 3):
CCN(C)C(=O)c1ccc2c(c1)NC(=O)/C2=C(\Nc1ccc(CN2CCCCC2)cc1)c1ccccc1 | 110%
CCNC(=O)c1ccc2c(c1)NC(=O)/C2=C(\Nc1ccc(CN(C)C)cc1)c1ccccc1 | 103%
O=C1Nc2ccccc2/C1=C(/Nc1ccc(CN2CCCCC2)cc1)c1ccccc1 | 38%

If you can, please state the reported residual activity value of `CCNCc1ccc(N/C(=C2\C(=O)Nc3cc(C(=O)N(C)CC)ccc32)c2ccccc2)cc1` .
87%

Same question, `CN(C)C(=O)c1ccc2c(c1)/C(=C(/Nc1ccc(CN3CCCCC3)cc1)c1ccccc1)C(=O)N2` this time
39%

Same question, `CCNC(=O)c1ccc2c(c1)NC(=O)/C2=C(\Nc1ccc(N(CCN(C)C)S(C)(=O)=O)cc1)c1ccccc1` this time
100%

---

- Assayed Target: Dual specificity tyrosine-phosphorylation-regulated kinase 1A (Homo sapiens) (UniProt Q13627)
- Protocol Summary: Inhibition of DYRK1A at 1 uM; values are per cent of control
Readout Kind: residual activity (%)
Field format: number, assumed %, no unit text.

Completed entries (count: 5):
CCNCc1ccc(N/C(=C2\C(=O)Nc3cc(C(=O)N(C)CC)ccc32)c2ccccc2)cc1 | 86
O=C1Nc2ccccc2/C1=C(/Nc1ccc(CN2CCCCC2)cc1)c1ccccc1 | 18
CCNC(=O)c1ccc2c(c1)NC(=O)/C2=C(\Nc1ccc(N(CCN(C)C)S(C)(=O)=O)cc1)c1ccccc1 | 96
CN(C)C(=O)c1ccc2c(c1)/C(=C(/Nc1ccc(CN3CCCCC3)cc1)c1ccccc1)C(=O)N2 | 45
CCN(C)C(=O)c1ccc2c(c1)NC(=O)/C2=C(\Nc1ccc(CN2CCCCC2)cc1)c1ccccc1 | 88

Attention now turns to another entry.
If you can, please state the reported residual activity value of `CCNC(=O)c1ccc2c(c1)NC(=O)/C2=C(\Nc1ccc(CN(C)C)cc1)c1ccccc1` .
105

---

- Assayed Target: Rho-associated protein kinase 2 (Homo sapiens)
- Protocol Summary: Inhibition of ROCK2 at 1 uM; values are per cent of control
Tick T if residual activity is 90% or greater. Tick F if residual activity is less than 90%.

Solved entries:
O=C1Nc2ccccc2/C1=C(/Nc1ccc(CN2CCCCC2)cc1)c1ccccc1 | F
CCNC(=O)c1ccc2c(c1)NC(=O)/C2=C(\Nc1ccc(CN(C)C)cc1)c1ccccc1 | T
CCNCc1ccc(N/C(=C2\C(=O)Nc3cc(C(=O)N(C)CC)ccc32)c2ccccc2)cc1 | F

Please indicate if the recorded residual activity for `CN(C)C(=O)c1ccc2c(c1)/C(=C(/Nc1ccc(CN3CCCCC3)cc1)c1ccccc1)C(=O)N2` meets or exceeds 90%.
F

---

residual activity values, listed per item
- Assayed Target: Dual specificity mitogen-activated protein kinase kinase 2 (Homo sapiens)
- Protocol Summary: Inhibition of MKK2 at 1 uM; values are per cent of control
Field format: number, assumed %, no unit text.

Completed entries (count: 3):
CCN(C)C(=O)c1ccc2c(c1)NC(=O)/C2=C(\Nc1ccc(CN2CCCCC2)cc1)c1ccccc1 | 102
O=C1Nc2ccccc2/C1=C(/Nc1ccc(CN2CCCCC2)cc1)c1ccccc1 | 75
CCNCc1ccc(N/C(=C2\C(=O)Nc3cc(C(=O)N(C)CC)ccc32)c2ccccc2)cc1 | 97

Under Dual specificity mitogen-activated protein kinase kinase 2 (Homo sapiens): residual activity value of `CN(C)C(=O)c1ccc2c(c1)/C(=C(/Nc1ccc(CN3CCCCC3)cc1)c1ccccc1)C(=O)N2` ?
94

---

- Assayed Target: Ribosomal protein S6 kinase alpha-5 (Homo sapiens) (UniProt O75582)
- Sequence (O75582 whole entry, looked up): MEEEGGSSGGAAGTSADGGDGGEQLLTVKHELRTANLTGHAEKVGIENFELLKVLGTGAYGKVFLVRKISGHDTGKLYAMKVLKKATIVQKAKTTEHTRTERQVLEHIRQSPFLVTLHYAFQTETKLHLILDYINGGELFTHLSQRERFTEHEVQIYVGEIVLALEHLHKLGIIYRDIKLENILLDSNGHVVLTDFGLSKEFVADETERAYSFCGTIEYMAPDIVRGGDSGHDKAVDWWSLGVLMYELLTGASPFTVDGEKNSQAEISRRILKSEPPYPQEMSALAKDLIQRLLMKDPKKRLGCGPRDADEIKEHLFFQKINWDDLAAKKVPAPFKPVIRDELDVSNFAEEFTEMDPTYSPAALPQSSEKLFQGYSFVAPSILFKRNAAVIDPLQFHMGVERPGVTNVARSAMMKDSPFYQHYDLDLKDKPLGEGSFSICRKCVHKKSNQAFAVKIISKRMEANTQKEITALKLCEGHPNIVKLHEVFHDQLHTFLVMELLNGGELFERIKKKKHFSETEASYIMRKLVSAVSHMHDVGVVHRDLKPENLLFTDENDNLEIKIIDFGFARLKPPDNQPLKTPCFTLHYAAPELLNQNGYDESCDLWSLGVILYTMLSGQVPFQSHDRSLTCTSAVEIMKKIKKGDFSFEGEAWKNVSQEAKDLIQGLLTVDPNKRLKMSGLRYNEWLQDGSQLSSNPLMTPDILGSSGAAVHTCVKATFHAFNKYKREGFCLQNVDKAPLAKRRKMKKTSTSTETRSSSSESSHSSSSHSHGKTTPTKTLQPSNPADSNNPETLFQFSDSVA
- Protocol Summary: Inhibition of MSK1 at 1 uM; values are per cent of control
residual activity values, listed per item
Field format: number, assumed %, no unit text.

Completed entries (count: 2):
CCNC(=O)c1ccc2c(c1)NC(=O)/C2=C(\Nc1ccc(CN(C)C)cc1)c1ccccc1 | 104
CCNCc1ccc(N/C(=C2\C(=O)Nc3cc(C(=O)N(C)CC)ccc32)c2ccccc2)cc1 | 83

If you can, please state the reported residual activity value of `CCN(C)C(=O)c1ccc2c(c1)NC(=O)/C2=C(\Nc1ccc(CN2CCCCC2)cc1)c1ccccc1` .
92

Same question, `CN(C)C(=O)c1ccc2c(c1)/C(=C(/Nc1ccc(CN3CCCCC3)cc1)c1ccccc1)C(=O)N2` this time
36

Same question, `O=C1Nc2ccccc2/C1=C(/Nc1ccc(CN2CCCCC2)cc1)c1ccccc1` this time
8

Same question, `CCNC(=O)c1ccc2c(c1)NC(=O)/C2=C(\Nc1ccc(N(CCN(C)C)S(C)(=O)=O)cc1)c1ccccc1` this time
105

---

- Assayed Target: TGF-beta receptor type-1 (Homo sapiens, UniProt P36897)
- Sequence (P36897 whole entry): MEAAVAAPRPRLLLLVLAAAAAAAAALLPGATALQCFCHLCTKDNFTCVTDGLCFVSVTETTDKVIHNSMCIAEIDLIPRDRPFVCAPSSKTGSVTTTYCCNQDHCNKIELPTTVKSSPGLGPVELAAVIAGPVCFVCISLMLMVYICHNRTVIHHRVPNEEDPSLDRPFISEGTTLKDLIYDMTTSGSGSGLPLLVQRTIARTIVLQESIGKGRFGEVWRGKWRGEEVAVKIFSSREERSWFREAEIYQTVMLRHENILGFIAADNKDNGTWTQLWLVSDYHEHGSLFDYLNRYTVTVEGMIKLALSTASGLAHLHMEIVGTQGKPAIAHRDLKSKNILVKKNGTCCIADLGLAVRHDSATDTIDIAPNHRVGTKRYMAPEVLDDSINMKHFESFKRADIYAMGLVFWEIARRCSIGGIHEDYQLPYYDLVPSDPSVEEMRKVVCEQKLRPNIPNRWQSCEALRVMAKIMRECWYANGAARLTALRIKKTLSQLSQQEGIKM
IC50 values, listed per item

CCNC(=O)c1ccc2c(c1)NC(=O)/C2=C(\Nc1ccc(C(=O)NCCN(CC)CC)cc1)c1ccccc1 | 33 nM
CCN(C)C(=O)c1ccc2c(c1)NC(=O)/C2=C(\Nc1ccc(CCN(C)C)cc1)c1ccccc1 | 64 nM
CCCCNC(=O)c1ccc2c(c1)NC(=O)/C2=C(\Nc1ccc(CN2CCCCC2)cc1)c1ccccc1 | 91 nM
CNC(=O)c1ccc2c(c1)NC(=O)/C2=C(\Nc1ccc(CN2CCCCC2)cc1)c1ccccc1 | 32 nM

Attention now turns to another entry.
If you can, please state the reported IC50 value of `CCNC(=O)c1ccc2c(c1)NC(=O)/C2=C\Nc1ccc(N(CCCN(C)C)C(C)=O)cc1` .
17 nM

---

- Assayed Target: Serine/threonine-protein kinase Sgk1 (Homo sapiens) (UniProt O00141)
- Sequence (O00141 whole entry): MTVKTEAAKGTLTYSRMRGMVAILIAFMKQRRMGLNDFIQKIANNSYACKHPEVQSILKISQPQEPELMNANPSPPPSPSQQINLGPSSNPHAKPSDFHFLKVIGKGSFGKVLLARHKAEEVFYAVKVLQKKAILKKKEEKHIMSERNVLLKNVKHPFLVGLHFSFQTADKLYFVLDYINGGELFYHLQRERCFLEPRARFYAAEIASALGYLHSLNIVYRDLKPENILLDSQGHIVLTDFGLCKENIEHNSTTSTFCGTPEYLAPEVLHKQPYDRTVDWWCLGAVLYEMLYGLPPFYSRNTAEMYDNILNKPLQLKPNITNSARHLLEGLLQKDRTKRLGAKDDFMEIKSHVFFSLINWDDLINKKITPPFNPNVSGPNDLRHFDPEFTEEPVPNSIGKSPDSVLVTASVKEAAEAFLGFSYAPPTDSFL
- Protocol Summary: Inhibition of SGK at 1 uM; values are per cent of control
Readout Kind: residual activity (%)
Field format: number, assumed %, no unit text.

Completed entries (count: 4):
O=C1Nc2ccccc2/C1=C(/Nc1ccc(CN2CCCCC2)cc1)c1ccccc1 | 20
CCNC(=O)c1ccc2c(c1)NC(=O)/C2=C(\Nc1ccc(N(CCN(C)C)S(C)(=O)=O)cc1)c1ccccc1 | 107
CCNCc1ccc(N/C(=C2\C(=O)Nc3cc(C(=O)N(C)CC)ccc32)c2ccccc2)cc1 | 106
CCN(C)C(=O)c1ccc2c(c1)NC(=O)/C2=C(\Nc1ccc(CN2CCCCC2)cc1)c1ccccc1 | 123

If you can, please state the reported residual activity value of `CN(C)C(=O)c1ccc2c(c1)/C(=C(/Nc1ccc(CN3CCCCC3)cc1)c1ccccc1)C(=O)N2` .
68

Same question, `CCNC(=O)c1ccc2c(c1)NC(=O)/C2=C(\Nc1ccc(CN(C)C)cc1)c1ccccc1` this time
124

---

- Assayed Target: TGF-beta receptor type-1 (Homo sapiens, UniProt P36897)
- Protocol Summary: Inhibition of TGFbeta receptor in human HaCaT cells assessed as Smad phosphorylation by ELISA
Readout Kind: EC50 (nM)
Field format: number, assumed nM, no unit text.

CCNC(=O)c1ccc2c(c1)NC(=O)/C2=C(\Nc1ccc(N(C)C(=O)CN(C)C)cc1)c1ccccc1 | 3380
CCNC(=O)c1ccc2c(c1)NC(=O)/C2=C\Nc1ccc(N(C)C(=O)CN2CCN(C)CC2)cc1 | 2180
CCNC(=O)c1ccc2c(c1)NC(=O)/C2=C\Nc1ccc(CN2CCCCC2)cc1 | 376
CCN(CC)CCNC(=O)c1ccc(N/C(=C2\C(=O)Nc3cc(C(=O)N(C)CC)ccc32)c2ccccc2)cc1 | 542
CCN(C)C(=O)c1ccc2c(c1)NC(=O)/C2=C(\Nc1ccc(N(CCN(C)C)C(C)=O)cc1)c1ccccc1 | 102

If you can, please state the reported EC50 value of `CCN(C)C(=O)c1ccc2c(c1)NC(=O)/C2=C(\Nc1ccc(CN2CCCCC2)cc1)c1ccccc1` .
105

Same question, `CCNC(=O)c1ccc2c(c1)NC(=O)/C2=C\Nc1ccc(N(C)C(=O)CN(C)C)cc1` this time
4360
